Test system: Saccharomyces cerevisiae BY4741 SeMeCo community
Test: z-score of subpopulation abundance vs DMSO median, subpopulation auxotrophic for HUM; higher = larger share of this subpopulation than in DMSO controls
Settings: 10 µM; 24 h; SM minimal medium; subpopulation (auxotrophy): HUM
Kind request: treat 0.2 as inclusive, so z-score of subpopulation abundance at 0.2 or higher is condition met, anything lower is condition not met.

Prompt: Check this molecule for z-score of subpopulation abundance at or above 0.2: CC(=O)[C@H]1CC[C@H]2[C@@H]3CCC4=CC(=O)CC[C@]4(C)[C@H]3CC[C@]12C [Progesterone]
Response: condition not met

Prompt: Quick check: does OC(c1ccccc1)(c1ccccc1)C12CC[N+](CCOCc3ccccc3)(CC1)CC2 [Umeclidinium bromide] have z-score of subpopulation abundance greater than or equal to 0.2?
Response: condition not met

Prompt: Is it the case that CO[C@@H]1[C@@H](O[C@@H]2O[C@H](C)[C@@H](O[C@H]3C[C@@](C)(O)[C@@H](O)[C@H](C)O3)[C@H](N(C)C)[C@H]2O)[C@@H](CC=O)C[C@@H](C)[C@@H](O[C@H]2CC[C@H](N(C)C)[C@@H](C)O2)/C=C/C=C/C[C@@H](C)OC(=O)C[C@H]1OC(C)=O [Acetylspiramycin (ASPM)] has z-score of subpopulation abundance reaching or exceeding 0.2?
Response: condition not met

Prompt: Please indicate if the recorded z-score of subpopulation abundance for OB1OCc2cc(F)ccc21 [Tavaborole (AN-2690)] meets or exceeds 0.2.
Response: condition met

Prompt: Assess whether reported z-score of subpopulation abundance for CC[N+](CC)(CC)CCOc1cccc(OCC[N+](CC)(CC)CC)c1OCC[N+](CC)(CC)CC [Gallamine Triethiodide] sits at 0.2 or higher.
Response: condition met

Prompt: Check the entry Nc1ccc(S(=O)(=O)c2ccc(N)cc2)cc1 [Dapson] : does z-score of subpopulation abundance equal or exceed 0.2?
Response: condition met

Prompt: Reported z-score of subpopulation abundance reaches at least 0.2 for CNCC[C@H](Oc1cccc2ccccc12)c1cccs1 [Duloxetine] ?
Response: condition met

====

Tested on: Saccharomyces cerevisiae BY4741 SeMeCo community
Test: z-score of prototroph abundance vs DMSO median; higher = larger share of this subpopulation than in DMSO controls
Conditions: 10 µM; 24 h; SM minimal medium; subpopulation (auxotrophy): Prototroph
Where a name gives a salt, the structure may show the parent alone.
Please mark y if the recorded z-score of prototroph abundance is equal to or greater than 0.2, and n if it falls below.

Prompt: In plain terms: is recorded z-score of prototroph abundance at least 0.2 for Cc1ccc(Cl)c(Nc2ccccc2C(=O)O)c1Cl [Meclofenamate Sodium] ?
Response: y

Prompt: Kindly determine if z-score of prototroph abundance recorded for CC[C@H](C)[C@H](N)C1=N[C@H](C(=O)N[C@@H](CC(C)C)C(=O)N[C@H](CCC(=O)O)C(=O)N[C@H](C(=O)N[C@H]2CCCCNC(=O)[C@H](CC(N)=O)NC(=O)[C@@H](CC(=O)O)NC(=O)[C@H](Cc3cnc[nH]3)NC(=O)[C@@H](Cc3ccccc3)NC(=O)[C@H]([C@@H](C)CC)NC(=O)[C@@H](CCCN)NC2=O)[C@@H](C)CC)CS1 [Bacitracin] is above or exactly 0.2.
Response: n

Prompt: Given O=c1c(-c2ccc(O)cc2)coc2c([C@@H]3O[C@H](CO)[C@@H](O)[C@H](O)[C@H]3O)c(O)ccc12 [Puerarin] , state whether its z-score of prototroph abundance is at least 0.2.
Response: n

Prompt: Decide: z-score of prototroph abundance of C[C@]12CC[C@@H]3c4ccc(OS(=O)(=O)O)cc4CC[C@H]3[C@@H]1CCC2=O [Estropipate] >= 0.2?
Response: y

Prompt: Could you please find out whether c1ccc(C2CN3CCSC3=N2)cc1 (stereo unspecified) [Tetramisole HCl] has z-score of prototroph abundance that meets 0.2 or exceeds it?
Response: y

Prompt: Does z-score of prototroph abundance meet or surpass 0.2 for CC(=O)Oc1ccc(C(=C2CCCCC2)c2ccc(OC(C)=O)cc2)cc1 [Cyclofenil] ?
Response: y

====

Field: z-score of subpopulation abundance. Provide a value for each of the compounds that follow.
Tested on: Saccharomyces cerevisiae BY4741 SeMeCo community
Experiment: z-score of subpopulation abundance vs DMSO median, subpopulation auxotrophic for M; higher = larger share of this subpopulation than in DMSO controls
Conditions: 10 µM; 24 h; SM minimal medium; subpopulation (auxotrophy): M
Where a name gives a salt, the structure may show the parent alone.
Lab note: record just the number, no unit beside it.

response.value for "CN(C)CC/C=C1/c2ccccc2Sc2ccc(Cl)cc21" (field: z-score of subpopulation abundance) = 0.73

Record CCCCCNC(=N)N/N=C/c1c[nH]c2ccc(OC)cc12 [Tegaserod Maleate] . Reported z-score of subpopulation abundance: 1.25

// CCOC(=O)C1=C(C)NC(C)=C(C(=O)OC)C1c1cccc([N+](=O)[O-])c1 (centres undefined) : z-score of subpopulation abundance value = -0.21

Data point: Nc1nc2[nH]cc(CCc3ccc(C(=O)N[C@@H](CCC(=O)O)C(=O)O)cc3)c2c(=O)[nH]1 [Pemetrexed] ; z-score of subpopulation abundance = -9.06

What the record says about CO[C@H]1C[C@@H]2CC[C@@H](C)[C@@](O)(O2)C(=O)C(=O)N2CCCC[C@H]2C(=O)O[C@H]([C@H](C)C[C@@H]2CC[C@@H](OCCO)[C@H](OC)C2)CC(=O)[C@H](C)/C=C(\C)[C@@H](O)[C@@H](OC)C(=O)[C@H](C)C[C@H](C)/C=C/C=C/C=C/1C [Everolimus (RAD001)] : z-score of subpopulation abundance is -1.38

GET /value?item= "C[C@H]1[C@H](NC(=O)/C(=N\OC(C)(C)C(=O)O)c2csc(N)n2)C(=O)N1S(=O)(=O)O" &field=z-score of subpopulation abundance returns 0.26

Given item "Oc1c(I)cc(Cl)c2cccnc12" , the value recorded as its z-score of subpopulation abundance is -0.87

Record CC1(C)[C@H](C(=O)O)N2C(=O)C[C@H]2S1(=O)=O [Sulbactam] . Reported z-score of subpopulation abundance: 0.57

Short answer for CCOC(=O)C1=C[C@@H](OC(CC)CC)[C@H](NC(C)=O)[C@@H](N)C1 [Oseltamivir Phosphate] : z-score of subpopulation abundance was -0.5

For reference, reported z-score of subpopulation abundance for "COC(=O)Nc1nc2cc(Sc3ccccc3)ccc2[nH]1" stands at 0.61

Input CN1CCN2c3ncccc3Cc3ccccc3C2C1 (centres undefined) . Output z-score of subpopulation abundance: 0.18

Sample "Cc1c(Cl)cccc1Nc1ccccc1C(=O)O" ; z-score of subpopulation abundance observed: -0.25

compound "Cc1[nH]c(=O)c(C#N)cc1-c1ccncc1" , z-score of subpopulation abundance observed: -0.56

The compound "Cc1ccnc(NS(=O)(=O)c2ccc(N)cc2)n1" showed z-score of subpopulation abundance equal to 1.32

Just so you know, measured z-score of subpopulation abundance for Fc1ccc([C@@H]2CCNC[C@H]2COc2ccc3c(c2)OCO3)cc1 [Paroxetine HCl] came out at -0.31

GET /value?item= Cc1ccc(S(=O)(=O)NC(=O)NN2CC3CCCC3C2)cc1 (centres undefined) [Gliclazide] &field=z-score of subpopulation abundance returns 0.04

The compound CC(C)[N+]1(C)[C@@H]2CC[C@H]1C[C@@H](OC(=O)C(CO)c1ccccc1)C2 (some centres undefined) [Ipratropium Bromide] showed z-score of subpopulation abundance equal to -0.02

Record summary for "NC(CO)(CO)CO" : reported z-score of subpopulation abundance = 0.08

// field: z-score of subpopulation abundance; key: CC(=O)OCC[N+](C)(C)C [Acetylcholine iodide] ; value = -0.32

Just so you know, measured z-score of subpopulation abundance for "CCC1(c2ccccc2)C(=O)NCNC1=O" came out at 0.8

Kindly note the recorded z-score of subpopulation abundance for "CCCCCCCCCC(=O)N[C@@H](Cc1c[nH]c2ccccc12)C(=O)N[C@H](CC(N)=O)C(=O)N[C@@H](CC(=O)O)C(=O)N[C@@H]1C(=O)NCC(=O)N[C@@H](CCCN)C(=O)N[C@@H](CC(=O)O)C(=O)N[C@H](C)C(=O)N[C@@H](CC(=O)O)C(=O)NCC(=O)N[C@H](CO)C(=O)N[C@@H]([C@H](C)CC(=O)O)C(=O)N[C@@H](CC(=O)c2ccccc2N)C(=O)O[C@@H]1C" , which is 0.17

Reported z-score of subpopulation abundance for CC1(C)S[C@@H]2[C@H](NC(=O)[C@H](N)c3ccccc3)C(=O)N2[C@H]1C(=O)O [Ampicillin sodium] was -0.4

So, CN1C[C@@H]2C[C@H]1CN2c1cc2c(cc1F)c(=O)c(C(=O)O)cn2C1CC1 [Danofloxacin Mesylate] ? Its z-score of subpopulation abundance was 0.03

Sample "Cc1ccc(-c2cc(C(F)(F)F)nn2-c2ccc(S(N)(=O)=O)cc2)cc1" ; z-score of subpopulation abundance observed: -0.11

# z-score of subpopulation abundance of CC1(C)S[C@@H]2[C@H](NC(=O)C(C(=O)O)c3ccccc3)C(=O)N2[C@H]1C(=O)O (some centres undefined) [Carbenicillin disodium] = 0.64

Recorded z-score of subpopulation abundance (compound Oc1ccc(C2CNCCc3c2cc(O)c(O)c3Cl)cc1 (centres undefined) [Fenoldopam mesylate] ): 1.31

Per the records, this compound ( CCN[C@@H]1C[C@H](N)[C@@H](O[C@H]2OC(CN)=CC[C@H]2N)[C@H](O)[C@H]1O[C@H]1OC[C@](C)(O)[C@H](NC)[C@H]1O [Netilmicin Sulfate] ) has z-score of subpopulation abundance equal to 1.38

Consider CO/N=C(\C(=O)N[C@@H]1C(=O)N2C(C(=O)[O-])=C(C[n+]3cccc4c3CCC4)CS[C@H]12)c1csc(N)n1 [Cefpirome sulfate] . Its measured z-score of subpopulation abundance is 0.51

So, CCNC(=O)[C@@H]1CCCN1C(=O)[C@H](CCCNC(=N)N)NC(=O)[C@H](CC(C)C)NC(=O)[C@@H](CC(C)C)NC(=O)[C@H](Cc1ccc(O)cc1)NC(=O)[C@H](CO)NC(=O)[C@H](Cc1c[nH]c2ccccc12)NC(=O)[C@H](Cc1c[nH]cn1)NC(=O)[C@@H]1CCC(=O)N1 [Leuprolide Acetate] ? Its z-score of subpopulation abundance was 0.38

Source listed as the supplement of paper PMC8975748.
